B1: BTBD1 (parent)
chain: IVGFGLYGSIHGPTDYQVNIQIIE

variants of: B1; test: protein stability index of a GFP-peptide fusion (GPS, HEK-293T) (PSI 1-6); higher = more stable; conditions: c terminus: a fixed tail appended;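 further: lentivirally expressed fusions sorted by FACS into six bins by GFP to DsRed ratio, PSI derived from sequencing read proportions per bin multiplied by bin number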
Criterion: protein stability index meeting or surpassing 3. Met: Condition met. Not met: Condition not met.

Example entries and their recorded answers appear below.
S9T = Condition not met
G5C = Condition not met
I20K = Condition not met
F4R = Condition not met
I23S = Condition not met
I20N = Condition not met
D15Y = Condition met
I1D = Condition not met
E24Y = Condition not met
L6D = Condition not met

Request: Is protein stability index for Y16C at or above 3?
Result: Condition met

Request: Is protein stability index for V18E at or above 3?
Result: Condition not met

Request: Is protein stability index for V2Q at or above 3?
Result: Condition met

Request: Is protein stability index for I10M at or above 3?
Result: Condition not met
